- System name: Estrogen receptor beta (Homo sapiens) (UniProt Q92731)
- Sequence (Q92731 whole entry): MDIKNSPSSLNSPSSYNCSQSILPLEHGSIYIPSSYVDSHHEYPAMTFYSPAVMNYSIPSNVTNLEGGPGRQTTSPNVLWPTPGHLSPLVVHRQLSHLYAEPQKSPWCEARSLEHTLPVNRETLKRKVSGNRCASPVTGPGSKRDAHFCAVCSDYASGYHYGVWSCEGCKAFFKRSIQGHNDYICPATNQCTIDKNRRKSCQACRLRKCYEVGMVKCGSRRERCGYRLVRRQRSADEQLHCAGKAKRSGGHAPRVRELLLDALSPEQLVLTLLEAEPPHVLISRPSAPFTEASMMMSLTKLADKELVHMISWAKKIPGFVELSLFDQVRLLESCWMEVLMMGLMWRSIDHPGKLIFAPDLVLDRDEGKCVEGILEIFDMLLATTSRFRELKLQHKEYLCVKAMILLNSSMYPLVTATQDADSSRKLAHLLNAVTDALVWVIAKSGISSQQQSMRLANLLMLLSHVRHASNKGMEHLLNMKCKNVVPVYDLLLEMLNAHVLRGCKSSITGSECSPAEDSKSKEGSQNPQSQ
- Assay summary: Binding affinity to ERbeta (unknown origin) relative to estradiol
Endpoint name: relative binding affinity (RBA)

C[C@]12CC=C(c3ccc(O)cc3C(F)(F)F)C[C@H]1CC[C@@H]2O = 174
C[C@]12CC[C@H](c3ccc(O)c(F)c3)C[C@@H]1CC[C@@H]2O = 6.84
C[C@]12CC[C@H](c3ccc(O)cc3F)C[C@@H]1CC[C@@H]2O = 13.6
COc1cc(O)ccc1C1=CC[C@@]2(C)[C@H](CC[C@@H]2O)C1 = 0.022
C[C@]12CC[C@H](c3ccc(O)cc3)C[C@H]1CC[C@@H]2O = 21.5
C[C@]12CC=C(c3ccc(O)cc3)C[C@@H]1CC[C@@H]2O = 17.3
Cc1c([C@H]2CC[C@@]3(C)[C@H](CC[C@@H]3O)C2)cc(F)c(O)c1F = 5.35
C[C@]12CC[C@H](c3ccc(O)c(F)c3F)C[C@@H]1CC[C@@H]2O = 7.3
C[C@]12CC=C(c3ccc(O)cc3Cl)C[C@@H]1CC[C@@H]2O = 14.1
C[C@]12CC=C(c3ccc(O)cc3Cl)C[C@H]1CC[C@@H]2O = 118

(A) COc1cc(O)ccc1[C@H]1CC[C@@]2(C)[C@H](CC[C@@H]2O)C1
(B) C[C@]12CC[C@H](c3ccc(O)cc3O)C[C@H]1CC[C@@H]2O
**Q:** Hi, I'm comparing two records. Which one has the lower relative binding affinity (RBA), A or B ? Answer with the label corresponding to your selection.
**A:** A
(A: 0.123, B: 3.97)

====

- System name: Estrogen receptor beta (Homo sapiens)
- Assay summary: Binding affinity to ERbeta (unknown origin) relative to estradiol
Endpoint name: relative binding affinity (RBA)

Below, 5 molecules whose answers are already recorded.
C[C@]12CC[C@H](c3ccc(O)cc3C(F)(F)F)C[C@@H]1CC[C@@H]2O = 4.9
C[C@]12CC[C@H](c3ccc(O)cc3F)C[C@H]1CC[C@@H]2O = 136
C[C@]12CC[C@H](c3cc(F)c(O)c(F)c3F)C[C@H]1CC[C@@H]2O = 1.73
C[C@]12CC=C(c3ccc(O)cc3)C[C@H]1CC[C@@H]2O = 6.8
Cc1cc(O)ccc1[C@H]1CC[C@@]2(C)[C@H](CC[C@@H]2O)C1 = 33.6

(A) C[C@]12CC[C@H](c3ccc(O)c(F)c3F)C[C@H]1CC[C@@H]2O
(B) C[C@]12CC[C@H](c3cc(F)c(O)c(F)c3F)C[C@@H]1CC[C@@H]2O
**Q:** Could you please tell me which of these two has the higher relative binding affinity (RBA): A or B ? Answer with the label corresponding to your selection.
**A:** A
(A: 42.8, B: 0.097)

(I) C[C@]12CC[C@H](c3ccc(O)cc3O)C[C@@H]1CC[C@@H]2O
(II) C[C@]12CC=C(c3cc(F)c(O)c(F)c3F)C[C@@H]1CC[C@@H]2O
**Q:** Could you please tell me which of these two has the higher relative binding affinity (RBA): I or II ? Answer with the label corresponding to your selection.
**A:** I
(I: 0.15, II: 0.076)

====

- Organism: Homo sapiens
- Assay summary: Selectivity ratio of RBA for ERbeta (unknown origin) to RBA for ERalpha (unknown origin)
Endpoint name: Selectivity ratio

COc1cc(O)ccc1C1=CC[C@@]2(C)[C@H](CC[C@@H]2O)C1 = 5.5
C[C@]12CC[C@H](c3ccc(O)c(F)c3F)C[C@H]1CC[C@@H]2O = 9.3
C[C@]12CC[C@H](c3ccc(O)c(F)c3)C[C@@H]1CC[C@@H]2O = 4.1
Cc1cc(O)ccc1[C@H]1CC[C@@]2(C)[C@@H](CC[C@@H]2O)C1 = 2.8
C[C@]12CC[C@H](c3cc(F)c(O)c(F)c3F)C[C@H]1CC[C@@H]2O = 9.3
Cc1cc(O)ccc1[C@H]1CC[C@@]2(C)[C@H](CC[C@@H]2O)C1 = 11.9
C[C@]12CC[C@H](c3ccc(O)cc3F)C[C@H]1CC[C@@H]2O = 5
C[C@]12CC=C(c3cc(F)c(O)c(F)c3F)C[C@@H]1CC[C@@H]2O = 0.8

(1) Cc1c([C@H]2CC[C@@]3(C)[C@@H](CC[C@@H]3O)C2)cc(F)c(O)c1F
(2) C[C@]12CC[C@H](c3ccc(O)cc3)C[C@H]1CC[C@@H]2O
**Q:** Could you please tell me which of these two has the higher Selectivity ratio: 1 or 2 ? Answer with the label corresponding to your selection.
**A:** 2

(1) C[C@]12CC=C(c3ccc(O)cc3F)C[C@@H]1CC[C@@H]2O
(2) C[C@]12CC[C@H](c3ccc(O)cc3O)C[C@@H]1CC[C@@H]2O
(3) C[C@]12CC=C(c3ccc(O)cc3F)C[C@H]1CC[C@@H]2O
(4) Cc1c([C@H]2CC[C@@]3(C)[C@H](CC[C@@H]3O)C2)cc(F)c(O)c1F
(5) C[C@]12CC=C(c3ccc(O)cc3)C[C@H]1CC[C@@H]2O
**Q:** Let's sort these by Selectivity ratio, smallest first. Go ahead? Note for the reader: the ranking is given by listing the labels in the order requested.
**A:** 1, 2, 4, 3, 5

(P) COc1cc(O)ccc1[C@H]1CC[C@@]2(C)[C@@H](CC[C@@H]2O)C1
(Q) C[C@]12CC[C@H](c3ccc(O)cc3O)C[C@H]1CC[C@@H]2O
(R) COc1cc(O)ccc1[C@H]1CC[C@@]2(C)[C@H](CC[C@@H]2O)C1
(S) C[C@]12CC=C(c3ccc(O)cc3C(F)(F)F)C[C@H]1CC[C@@H]2O
**Q:** Order the items by recorded Selectivity ratio; the first position goes to the largest value. Note for the reader: the ranking is given by listing the labels in the order requested.
**A:** Q, R, P, S
(Q: 15.3, R: 7.7, P: 3.7, S: 1.4)
